Assay comment: soluble fraction after stress (log2 fold change); higher = more stays soluble; pooled small domains, quantitative proteomics;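 further: 20 min heating vs room temperature control held 20 min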
Condition notes: stress: 75 degC
# if value of soluble fraction (log2) reaches -0.3, tag MET; if it stays below, tag NOT MET

Prompt: # bool: soluble fraction (log2) of HMNYDPEEKITQIRTMLEIHSRIEFNEIITPATRRGEIIIIFLALLHMIKRGYIVVRQHRLFGDITIFARD >= -0.3
Response: MET

Prompt: Would you say HMDANLGEIFKVYEQEIGALTPFVREEMLDAIDHYPRDWILDAIRESAKSNARNWKYTLAILKRWKAEG shows soluble fraction (log2) at minimum -0.3?
Response: MET

Prompt: Please indicate if the recorded soluble fraction (log2) for HMRGPPQVLVDVELEDGRVGQIGVRNGDDATELAETFVRAFRLEQSFVGRLANVIQGKIRELLHSQ meets or exceeds -0.3.
Response: NOT MET

Prompt: Hi team, for HMAAVSTDEEFAALGIPAEWIPVLKSNGFQTVESLKKVAPGALFNQLGGLRKKNKLEIAMPSLDQVKAWLA , is the recorded soluble fraction (log2) at or above -0.3?
Response: MET

Prompt: Dear colleague, could you confirm whether HMEMDITIQMRTLVEELNRASDAYYNGRGELMTDYEWDAKFDQLKQLESQSGVVLPDSPTHRV has soluble fraction (log2) at or above -0.3?
Response: MET
